The origin of these recorded values is ChEMBL document CHEMBL4715782.

ASSAY_NAME: in vitro
CONDITION_SET: PAMPA
Description: Effective permeability of the compound in PBS/ethanol buffer (9:1) at 25 ug/ml after 10 hrs by UV plate reader based PAMPA-BBB assay
Recorded Papp at 10 h, 25 ug/ml by entry
METRIC: Papp at 10 h, 25 ug/ml (nm/s)

substance_smiles=O=C(CCCCCN1CCCCC1)Nc1cccc2c1C(=O)c1cccc3ccnc-2c13 metric="Papp at 10 h, 25 ug/ml" observed_value=49.2
substance_smiles=O=C(CCCN1CCCCC1)Nc1c(Cl)ccc2c1-c1nccc3cccc(c13)C2=O metric="Papp at 10 h, 25 ug/ml" observed_value=24.4
substance_smiles=O=C(CCCCN1CCCCC1)Nc1cccc2c1C(=O)c1cccc3ccnc-2c13 metric="Papp at 10 h, 25 ug/ml" observed_value=65.9
